# Test system: SNB-19
# Assay remarks: NCI tumour cell line growth inhibition, 48 h
Calls of active or inactive are those of the source. No stated cut-off is given here; in the data, active = GI50 up to about 1.1 µM and inactive = higher.
Outcome measure: GI50

For this compound ( `ClCCC[Si]12OCCN(CCO1)CCO2` ), measured GI50 is > 100 µM (inactive)

Record summary for COc1nc(NC2OC(COC(C)=O)C(OC(C)=O)C(OC(C)=O)C2OC(C)=O)c(/N=C/C=N/c2c(NC3OC(COC(C)=O)C(OC(C)=O)C(OC(C)=O)C3OC(C)=O)nc(OC)[nH]c2=O)c(=O)[nH]1 (stereo not given) : reported GI50 = > 100 µM (inactive)

Record `CSc1nnc(COc2ccc(Cl)cc2)o1` . Reported GI50: > 100 µM (inactive)

Kindly note the recorded GI50 for `COC(=O)CCC1=NCC(C)(C)O1` , which is > 10 µM (inactive)

Briefly, GI50 measured for `O=C(CCCn1ccnc1[N+](=O)[O-])NCCn1ccnc1` : > 100 µM (inactive)

# GI50 (compound: C=C(CN1CC2C[C@](C(=O)OC)(c3cc4ccccc4[nH]3)C1C(OC)C2OC)S(=O)(=O)c1ccccc1 (stereo not given in full) ) is 10.8 µM (inactive)

For reference, reported GI50 for CC1(C)CCC(=O)NC1CC(=O)CC1NC(=O)CCC1(C)C (stereo not given) stands at > 100 µM (inactive)

// recorded GI50 for `Cc1cc(N(CCCCl)CCCCl)ccc1/C=N/c1cccc(Cl)c1` : 15.3 µM (inactive)

Lab note: measured GI50 of `Cc1nc2ccc(C(F)(F)F)cc2nc1NCc1ccc(Cl)c(Cl)c1` was 18.4 µM (inactive)

compound `COc1ccc2c(c1)/C(=C\c1c(Cl)[nH]c3cc(C)c(OC)cc13)C(=O)N2` , GI50 observed: 1.39 µM (inactive)

Reported GI50 for `O=C(Nc1ccccc1)c1cc(S(=O)(=O)Nc2n[nH]c(=O)n2-c2ccccc2)c(S)cc1Cl` was > 100 µM (inactive)

Memo: `CCn1c(-c2ccc(OC)cc2)nc2c1C(=O)c1ccccc1C2=O` , reported GI50: > 100 µM (inactive)

Quick note, GI50 for CCN1C(=O)c2ccccc2C1(O)c1ccc(Cl)cc1 (stereo not given) landed at 20.7 µM (inactive)

For this compound ( `Oc1c(OCc2nnc(CCCCCCCCc3nnc(COc4ccc5ccccc5c4O)n3Nc3ccccc3)n2Nc2ccccc2)ccc2ccccc12` ), measured GI50 is 11.8 µM (inactive)

get_value(item= O=C(NC(COC(=O)C(Cc1ccccc1)NC(=O)c1ccccc1)Cc1ccccc1)c1ccccc1 (stereo not given) , readout=GI50) returns 25.6 µM (inactive)

The origin of these recorded values is ChEMBL document CHEMBL1201862.
